The origin of these recorded values is patent US20060074243A1.

Target: Human recombinant MMP-14 (Homo sapiens)
Construct: The catalytic domain enzyme was expressed in E. coli inclusion bodies, solubilized in urea; made in house
Experiment: In vitro MMP inhibition analysis (fluorogenic peptide substrate cleavage), Ki
Type: biochemical
Settings: Table 2
measured property: Ki (µM)

In the examples that follow, each entry is paired with its recorded Ki.
{"compound": "CCN1CCC(C(=O)NO)(S(=O)(=O)c2ccc(-c3ccc(-c4csc(C)n4)cc3)cc2)CC1", "recorded number": 0.283}
{"compound": "CCOCCOc1ccc(-c2ccc(S(=O)(=O)C3(C(=O)NO)CCN(CC)CC3)cc2)cc1", "recorded number": 2.93}
{"compound": "CC(C)CCNC(=O)c1cnc(-c2ccc(S(=O)(=O)C3(C(=O)NO)CCOCC3)cc2)cn1", "recorded number": 2.05}

P = CCCCNC(=O)c1cnc(-c2ccc(S(=O)(=O)C3(C(=O)NO)CCOCC3)cc2)cn1
Q = CCC(C)COc1ccc(-c2ccc(S(=O)(=O)C3(C(=O)NO)CCOCC3)cc2)cc1C(F)(F)F (stereo not shown)
R = O=C(NO)C1(S(=O)(=O)c2ccc(-c3cnccn3)cc2)CCOCC1
**Query** Kindly order the items shown according to Ki, from the highest value down. Your reply should list the labels following the order given in the request.
**Result** Q, P, R

* * *

Target: Human recombinant MMP-14 (Homo sapiens, UniProt P50281)
Construct: The catalytic domain enzyme was expressed in E. coli inclusion bodies, solubilized in urea; made in house
Assay: In vitro MMP inhibition analysis (fluorogenic peptide substrate cleavage), Ki
Assay type: biochemical
Details: Table 1
pKi: −log10 of the molar value.
measured property: pKi

{"compound": "O=C(NO)C1(S(=O)(=O)c2ccc(-c3ccc(CCC(F)(F)C(F)(F)F)cc3)cc2)CCOCC1 [Example 41]", "pKi": 5.94}
{"compound": "O=C(NO)C1(S(=O)(=O)c2ccc(-c3ccc(CCCC(F)(F)F)cc3)cc2)CCN(C2CC2)CC1 [Example 44]", "pKi": 5.67}
{"compound": "COCCN1CCC(C(=O)NO)(S(=O)(=O)c2ccc(-c3ccc(CCCC(F)(F)F)cn3)cc2)CC1 [Example 54]", "pKi": 5.95}
{"compound": "O=C(NO)C1(S(=O)(=O)c2ccc(-c3ccc(CCC(F)(F)C(F)(F)F)cc3)cc2)CCN(C2CC2)CC1 [Example 45]", "pKi": 5.76}

P = CC(F)(F)CCc1ccc(-c2ccc(S(=O)(=O)C3(C(=O)NO)CCN(C4CC4)CC3)cc2)cc1 [Example 59]
Q = COCCN1CCC(C(=O)NO)(S(=O)(=O)c2ccc(-c3ccc(CCCC(F)(F)F)cc3)cc2)CC1 [Example 43]
R = COCCN1CCC(C(=O)NO)(S(=O)(=O)c2ccc(-c3ccc(CCC(C)(F)F)cc3)cc2)CC1 [Example 63]
**Query** Kindly order the items shown according to pKi, from the highest value down. Your reply should list the labels following the order given in the request.
**Result** R, P, Q
(R: 6.63, P: 6.41, Q: 5.80)

* * *

Molecular target: Human recombinant MMP-14 (Homo sapiens)
Construct: The catalytic domain enzyme was expressed in E. coli inclusion bodies, solubilized in urea; made in house
Assay: In vitro MMP inhibition analysis (fluorogenic peptide substrate cleavage), Ki
Assay type: biochemical
Conditions: Table 2
pKi: −log10 of the molar value.
measured property: pKi

{"smiles record": "O=C(NO)C1(S(=O)(=O)c2ccc(-c3ccc(-n4ccnc4)cc3)cc2)CCOCC1", "recorded number": 6.38}
{"smiles record": "O=C(NO)C1(S(=O)(=O)c2ccc(-c3cnc(OCC4CCC4)cn3)cc2)CCOCC1", "recorded number": 6.49}
{"smiles record": "CCCCc1nc(-c2ccc(S(=O)(=O)C3(C(=O)NO)CCOCC3)cc2)no1", "recorded number": 5.76}

I = O=C(NO)C1(S(=O)(=O)c2ccc(-c3ccc(CCC(F)(F)C(F)(F)F)cn3)cc2)CCOCC1
II = COCCOc1ccc(-c2ccc(S(=O)(=O)C3(C(=O)NO)CCN(CCOC)CC3)cc2)cc1
III = CCNc1cnc(-c2ccc(S(=O)(=O)C3(C(=O)NO)CCOCC3)cc2)cn1
IV = CCN1CCC(C(=O)NO)(S(=O)(=O)c2ccc(-c3ccc(Oc4ccccc4)cc3)cc2)CC1
**Query** # rank by pKi, ascending (min first) Your reply should list the labels following the order given in the request.
**Result** III, IV, II, I
(III: 5.35, IV: 6.00, II: 6.28, I: 6.66)

* * *

Biological target: Human recombinant MMP-1 (Homo sapiens)
Construct: made in house; host or cells: MMP-1-transfected HT-1080 cells (spent media)
Sequence (P03956 100-469): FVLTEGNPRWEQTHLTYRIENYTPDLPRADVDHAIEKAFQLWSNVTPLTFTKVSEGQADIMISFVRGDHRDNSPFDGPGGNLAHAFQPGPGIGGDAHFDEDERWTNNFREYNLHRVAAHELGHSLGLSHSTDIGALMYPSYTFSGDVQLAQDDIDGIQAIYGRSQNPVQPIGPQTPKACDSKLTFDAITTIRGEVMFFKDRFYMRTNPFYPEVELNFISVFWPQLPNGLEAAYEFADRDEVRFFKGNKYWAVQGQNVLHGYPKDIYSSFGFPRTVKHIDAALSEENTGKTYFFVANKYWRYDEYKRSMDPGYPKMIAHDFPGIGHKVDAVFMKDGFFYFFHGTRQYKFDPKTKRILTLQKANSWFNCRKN
Test: In vitro MMP inhibition analysis (fluorogenic peptide substrate cleavage), Ki
Assay type: biochemical
Details: Table 2
pKi: −log10 of the molar value.
measured property: pKi

{"compound": "CCCc1ccc(-c2ccc(S(=O)(=O)C3(C(=O)NO)CCOCC3)cc2)cc1 [Example 87]", "pKi": 5.95}

P = CN(C)C(=O)N1CCC(C(=O)NO)(S(=O)(=O)c2ccc(-c3ccc(CCC(F)(F)C(F)(F)F)cc3)cc2)CC1 [Example 173]
Q = O=C(NO)C1(S(=O)(=O)c2ccc(-c3ccc(CCC(F)(F)F)cn3)cc2)CCOCC1 [Example 176]
R = CC(C)CCNC(=O)c1cnc(-c2ccc(S(=O)(=O)C3(C(=O)NO)CCOCC3)cc2)cn1 [Example 185]
**Query** Kindly order the items shown according to pKi, from the highest value down. Your reply should list the labels following the order given in the request.
**Result** R, Q, P

1 = CN1CCC(C(=O)NO)(S(=O)(=O)c2ccc(-c3ccc(OC(F)(F)C(F)F)cc3)cc2)CC1 [Example 146]
2 = O=C(NO)C1(S(=O)(=O)c2ccc(-c3ccc(-c4ccc(OC(F)(F)F)cc4)cn3)cc2)CCN(C2CC2)CC1 [Example 145]
3 = O=C(NC1CCCC1)c1ccc(-c2ccc(S(=O)(=O)C3(C(=O)NO)CCOCC3)cc2)nc1 [Example 198]
4 = CC(C)CCOc1ccc(-c2ccc(S(=O)(=O)C3(C(=O)NO)CCOCC3)cc2)cc1 [Example 108]
**Query** Kindly order the items shown according to pKi, from the highest value down. Your reply should list the labels following the order given in the request.
**Result** 3, 1, 4, 2

* * *

Target: Human recombinant MMP-9 (Homo sapiens, UniProt P14780)
Construct: made in house; host or cells: MMP-9-transfected HT1080 cells (spent media)
Sequence (P14780 107-707 limits assumed): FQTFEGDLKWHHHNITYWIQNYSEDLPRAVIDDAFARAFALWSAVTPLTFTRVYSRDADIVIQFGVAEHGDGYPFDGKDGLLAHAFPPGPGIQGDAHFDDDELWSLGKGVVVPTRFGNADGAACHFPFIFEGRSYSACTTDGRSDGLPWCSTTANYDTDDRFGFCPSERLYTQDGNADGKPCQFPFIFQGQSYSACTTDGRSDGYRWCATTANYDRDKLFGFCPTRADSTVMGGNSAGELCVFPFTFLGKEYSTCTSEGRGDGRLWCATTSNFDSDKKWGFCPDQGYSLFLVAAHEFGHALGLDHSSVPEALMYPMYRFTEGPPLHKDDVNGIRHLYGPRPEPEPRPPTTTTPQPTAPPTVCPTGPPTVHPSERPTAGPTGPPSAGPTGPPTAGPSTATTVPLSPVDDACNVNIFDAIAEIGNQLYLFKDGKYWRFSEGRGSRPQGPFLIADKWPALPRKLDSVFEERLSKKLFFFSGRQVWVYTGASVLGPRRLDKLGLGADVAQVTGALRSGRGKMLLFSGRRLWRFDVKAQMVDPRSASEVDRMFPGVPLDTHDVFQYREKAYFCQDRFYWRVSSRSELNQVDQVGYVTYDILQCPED
Assay: In vitro MMP inhibition analysis (fluorogenic peptide substrate cleavage), Ki
Type: biochemical
Conditions: Table 2
pKi: −log10 of the molar value.
measured property: pKi

{"smiles record": "CCCCOc1cnc(-c2ccc(S(=O)(=O)C3(C(=O)NO)CCOCC3)cc2)cn1", "pKi": 9.95}
{"smiles record": "COc1ccc(C(=O)c2cnc(-c3ccc(S(=O)(=O)C4(C(=O)NO)CCOCC4)cc3)cn2)cc1", "pKi": 7.41}

I = O=C(NO)C1(S(=O)(=O)c2ccc(-c3cnc(N4CCCCC4)cn3)cc2)CCOCC1
II = CCCCCc1ccc(-c2ccc(S(=O)(=O)C3(C(=O)NO)CCOCC3)cc2)cc1
**Query** Which numeric pKi is bigger, that of I or that of II ? Field: selected label. Fill in the label of the entry you choose.
**Result** II
(II: 9.00, I: 8.28)

* * *

Molecular target: Human recombinant MMP-2 (Homo sapiens, UniProt P08253)
Construct: made in house; host or cells: MMP-2-transfected p2AHT2 cells
Sequence (P08253 110-660): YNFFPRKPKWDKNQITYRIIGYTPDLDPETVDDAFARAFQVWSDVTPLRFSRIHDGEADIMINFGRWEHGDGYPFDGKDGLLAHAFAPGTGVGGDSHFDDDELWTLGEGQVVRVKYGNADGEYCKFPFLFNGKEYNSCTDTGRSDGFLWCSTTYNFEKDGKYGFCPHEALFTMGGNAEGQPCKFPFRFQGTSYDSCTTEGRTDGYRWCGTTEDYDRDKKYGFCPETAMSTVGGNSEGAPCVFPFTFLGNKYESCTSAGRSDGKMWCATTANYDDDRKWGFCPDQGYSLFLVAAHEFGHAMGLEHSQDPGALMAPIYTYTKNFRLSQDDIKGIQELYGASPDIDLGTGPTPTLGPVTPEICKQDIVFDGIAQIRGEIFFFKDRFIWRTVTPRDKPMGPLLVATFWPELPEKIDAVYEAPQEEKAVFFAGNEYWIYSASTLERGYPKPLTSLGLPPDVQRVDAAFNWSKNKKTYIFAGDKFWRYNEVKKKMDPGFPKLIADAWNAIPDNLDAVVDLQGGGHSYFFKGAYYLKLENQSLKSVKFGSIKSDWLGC
Assay: In vitro MMP inhibition analysis (fluorogenic peptide substrate cleavage), Ki
Assay type: biochemical
Conditions: Table 2
pKi: −log10 of the molar value.
measured property: pKi

In the examples that follow, each entry is paired with its recorded pKi.
{"smiles record": "O=C(NO)C1(S(=O)(=O)c2ccc(-c3cnccn3)cc2)CCOCC1", "pKi": 8.22}
{"smiles record": "O=C(NO)C1(S(=O)(=O)c2ccc(-c3cnc(OCC(F)(F)C(F)(F)F)cn3)cc2)CCOCC1", "pKi": 9.89}
{"smiles record": "O=C(NCC1CC1)c1cnc(-c2ccc(S(=O)(=O)C3(C(=O)NO)CCOCC3)cc2)cn1", "pKi": 9.12}
{"smiles record": "COCCOc1ccc(-c2ccc(S(=O)(=O)C3(C(=O)NO)CCOCC3)cc2)cc1", "pKi": 9.75}
{"smiles record": "CCCCOc1ccc(-c2ccc(S(=O)(=O)C3(C(=O)NO)CCOCC3)cc2)cc1C(F)(F)F", "pKi": 7.26}

1 = O=C(NO)C1(S(=O)(=O)c2ccc(-c3cnc(OCC4CCC4)cn3)cc2)CCOCC1
2 = O=C(NO)C1(S(=O)(=O)c2ccc(-c3ccc(-c4ccc(OC(F)(F)F)cc4)cn3)cc2)CCN(C2CC2)CC1
3 = COC/C(Cl)=C/c1cnc(-c2ccc(S(=O)(=O)C3(C(=O)NO)CCOCC3)cc2)cn1
**Query** # rank by pKi, ascending (min first) Your reply should list the labels following the order given in the request.
**Result** 3, 2, 1
